- experiment: LNP Zeta potential measured using a Zetasizer (Malvern)
- Format: physicochemical
- testSettings: Table 5; LNP 60:0:38.5:1.5 mol %; hEPO mRNA; N:P 6
recordedEndpoint: Zeta potential (mV)

- compound: "CCCCCCCC(CCCCCCC)C(=O)OCCN(CCOC(=O)C(CCCCCCC)CCCCCCC)C(=O)CN"
  scaleUnit: "mV"
  Zeta potential: "−3.753"

(P) CCCCCCCCC(CCCCCC)C(=O)OCCN(CCOC(=O)C(CCCCCC)CCCCCCCC)C(=O)CNCCO (centres unmarked)
(Q) CCCCCCCC(CCCCCCC)C(=O)OCCN(CCOC(=O)C(CCCCCCC)CCCCCCC)C(=O)C(N)Cc1ccccc1 (centres unmarked)
(R) CCCCCCCC(CCCCCCC)C(=O)OCCN(CCOC(=O)C(CCCCCCC)CCCCCCC)C(=O)C(C)N (centres unmarked)
(S) CCCCCCCCC(CCCCCC)C(=O)OCCN(CCOC(=O)C(CCCCCC)CCCCCCCC)C(=O)CN (centres unmarked)
(Q) Order the records so the highest Zeta potential appears first and the lowest last. Labels, ranked as asked.
(A) P, R, S, Q

---

- experiment: Encapsulation efficiency (EE %) by fluorescence based Ribogreen assay
- Type: physicochemical
- testSettings: Table 10; LNP with hEPO mRNA, Lipid:DSPC:Cholesterol:DMG-PEG2k 50:10:38.5:1.5 mol %, N:P ratio 6; Ribogreen assay
recordedEndpoint: Encapsulation Efficiency % (%)

Look over these answered cases.
- compound: "CCCCCCCCCC(CCCCCCCCC)C(=O)OCCN(CCOC(=O)C(CCCCCCCCC)CCCCCCCCC)C(=O)CCN(C)CCC [Compound 917g]"
  Encapsulation Efficiency % (%): 93.5
- compound: "CCCCCCCCCC(CCCCCCCCC)C(=O)OCCN(CCOC(=O)C(CCCCCCCCC)CCCCCCCCC)C(=O)CCN(C)CC [Compound 917e]"
  Encapsulation Efficiency % (%): 95.4
- compound: "CCCCCCCC/C=C\\CCCCCCCC(=O)OCCN(CCOC(=O)C(CCCCCC)CCCCCCCC)C(=O)CCN1CCCCC1 (centres unmarked) [Compound 917h]"
  Encapsulation Efficiency % (%): 91.4

(P) CCCCCCCCCC(CCCCCCCCC)C(=O)OCCN(CCOC(=O)C(CCCCCCCCC)CCCCCCCCC)C(=O)CCN(CC)CC [Compound 917f]
(Q) CCCCCCCC/C=C\CCCCCCCC(=O)OCCN(CCOC(=O)C(CCCCCC)CCCCCCCC)C(=O)CCN(CC)CC (centres unmarked) [Compound 917a]
(Q) Just curious, which one has the larger Encapsulation Efficiency % reading, P or Q ? Refer to your chosen item by its label in the answer.
(A) P
(P: 91.9%, Q: 43.4%)

---

- experiment: LNP Zeta potential measured using a Zetasizer (Malvern)
- Type: physicochemical
- testSettings: Table 11; LNP with hEPO mRNA, Lipid:DSPC:Cholesterol:DMG-PEG2k 50:10:38.5:1.5 mol % (ALC-0315: 46.3:9.4:42.7:1.6), N:P ratio 6; HEPES/sodium chloride/sucrose buffer, stored at −80C
recordedEndpoint: Zeta potential (mV)

- molecule: "CCCCCCCCC(CCCCCC)C(=O)OCCN(CCOC(=O)C(CCCCCC)CCCCCCCC)C(=O)C(C)CCN(C)CCC.Cl (stereo not shown) [Compound 987i]"
  Zeta potential (mV): "−4.1"
- molecule: "CCCCCCCCCCCOC(=O)CCCCCN(CCO)CCCCCCCC(=O)OC(CCCCCCCC)CCCCCCCC [SM-102, reference compound]"
  Zeta potential (mV): "−1.0"

(P) CCCCCCCCC(CCCCCC)C(=O)OCCN(CCOC(=O)C(CCCCCC)CCCCCCCC)C(=O)C(C)CCN(C)CCO.Cl (stereo not shown) [Compound 987p]
(Q) CCCCCCCCC(CCCCCC)C(=O)OCCN(CCOC(=O)C(CCCCCC)CCCCCCCC)C(=O)C(C)CCN1CCCCC1.Cl (stereo not shown) [Compound 987m]
(Q) // pick larger Zeta potential (mV) from pair: P vs Q Refer to your chosen item by its label in the answer.
(A) P
